The origin of these recorded values is ChEMBL document CHEMBL4400518.

- System: Pseudomonas aeruginosa
- ASSAY_PROCEDURE: Antibacterial activity against Pseudomonas aeruginosa CMCC 10104 measured after 24 hrs by ELISA
- Format: functional
- PROTOCOL_CONDITIONS: CMCC 10104, 24 h
The reader will find reported MIC values listed item by item below.

{"STRUCTURE_SMILES_STRING": "C/C(=N/NC(N)=O)c1cn(S(=O)(=O)c2ccccc2)c2ccc(Br)cc12", "MEASUREMENT_KIND": "MIC", "REPORTED": "> 295 µM"}
{"STRUCTURE_SMILES_STRING": "CC/C(=N/NC(=N)N)c1cn(S(=O)(=O)c2ccc(C)cc2)c2ccc(Br)cc12", "MEASUREMENT_KIND": "MIC", "REPORTED": "> 278 µM"}
{"STRUCTURE_SMILES_STRING": "C/C(=N/NC(N)=S)c1cn(S(=O)(=O)c2ccccc2)c2ccc(Br)cc12", "MEASUREMENT_KIND": "MIC", "REPORTED": "> 284 µM"}
{"STRUCTURE_SMILES_STRING": "Cc1ccc(S(=O)(=O)n2cc(/C=N\\NC(N)=S)c3cc(Br)ccc32)cc1", "MEASUREMENT_KIND": "MIC", "REPORTED": "> 284 µM"}
{"STRUCTURE_SMILES_STRING": "CC/C(=N/NC(N)=O)c1cn(S(=O)(=O)c2ccc(C)cc2)c2ccc(Br)cc12", "MEASUREMENT_KIND": "MIC", "REPORTED": "> 277 µM"}

Answer with reported MIC of CC/C(=N/NC(=N)N)c1cn(S(=O)(=O)c2ccc(C)cc2)c2ccccc12
> 334 µM

---

The reader will find reported MIC values listed item by item below.
- System: Bacillus subtilis
- ASSAY_PROCEDURE: Antibacterial activity against Bacillus subtilis CMCC 63501 measured after 24 hrs by ELISA
- Assay type: functional
- PROTOCOL_CONDITIONS: CMCC 63501, 24 h

Illustrative cases are given below, each with its answer.
{"STRUCTURE_SMILES_STRING": "CC/C(=N/NC(N)=O)c1cn(S(=O)(=O)c2ccccc2)c2ccc(Br)cc12", "MIC": "> 286 µM"}
{"STRUCTURE_SMILES_STRING": "CC/C(=N/NC(N)=S)c1cn(S(=O)(=O)c2ccc(C)cc2)c2ccc(Br)cc12", "MIC": "> 268 µM"}

Below: the item to evaluate.
Answer with reported MIC of Cc1ccc(S(=O)(=O)n2cc(/C=N\NC(N)=S)c3cc(Br)ccc32)cc1
> 284 µM

---

- System: Bacillus subtilis
- ASSAY_PROCEDURE: Antibacterial activity against Bacillus subtilis CMCC 63501 measured after 24 hrs by ELISA
- Assay type: functional
- PROTOCOL_CONDITIONS: CMCC 63501, 24 h
MEASUREMENT_KIND: MIC

{"STRUCTURE_SMILES_STRING": "Cc1onc(-c2ccccc2)c1C(=O)N[C@@H]1C(=O)N2[C@@H]1SC(C)(C)[C@@H]2C(=O)O", "MIC": "> 319 µM"}
{"STRUCTURE_SMILES_STRING": "CC/C(=N/NC(=N)N)c1cn(S(=O)(=O)c2ccccc2)c2ccccc12", "MIC": "> 347 µM"}

Below: the item to evaluate.
Answer with reported MIC of CC/C(=N/NC(N)=O)c1cn(S(=O)(=O)c2ccc(C)cc2)c2ccc(Br)cc12
> 277 µM
